# targetOrSystem: 1-deoxy-D-xylulose 5-phosphate reductoisomerase (Escherichia coli)
# Sequence (W8T2T2 whole entry): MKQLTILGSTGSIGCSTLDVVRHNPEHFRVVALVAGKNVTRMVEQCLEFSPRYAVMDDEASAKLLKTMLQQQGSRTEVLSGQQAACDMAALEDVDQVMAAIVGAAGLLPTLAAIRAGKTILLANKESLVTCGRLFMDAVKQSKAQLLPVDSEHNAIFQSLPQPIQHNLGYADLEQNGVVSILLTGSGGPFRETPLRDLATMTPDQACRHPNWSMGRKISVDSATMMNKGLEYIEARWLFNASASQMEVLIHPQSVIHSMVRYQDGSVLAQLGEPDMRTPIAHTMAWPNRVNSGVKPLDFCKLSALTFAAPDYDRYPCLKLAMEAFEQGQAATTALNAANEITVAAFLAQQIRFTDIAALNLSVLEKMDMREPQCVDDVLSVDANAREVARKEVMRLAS
# procedureSummary: Inhibition of recombinant Escherichia coli Dxr expressed in Escherichia coli BL21 CodonPlus (DE3)-RIL cells using DOXP as substrate assessed as NADPH oxidation preincubated for 5 mins with NADPH followed by substrate addition by spectrophotometric analysis
attributeMeasured: pIC50
Give bare numbers, as −log10 of the molar value.

CN(O)C(=O)CC(CCCCc1ccccc1)CP(=O)(O)O (centres undefined)	3.56
CC(CC(=O)N(C)O)CP(=O)(O)O (centres undefined)	5.15
CN(O)C(=O)CCCP(=O)(O)O	5.94

Consider now this further compound.
-- ask Given the compound CN(O)C(=O)CC(CCCc1ccccc1)CP(=O)(O)O (centres undefined) , write its reported pIC50.
-- reply 4.99
